Target: β-Secretase (BACE-1) (Homo sapiens (Human), UniProt P56817)
Sequence (P56817 46-501): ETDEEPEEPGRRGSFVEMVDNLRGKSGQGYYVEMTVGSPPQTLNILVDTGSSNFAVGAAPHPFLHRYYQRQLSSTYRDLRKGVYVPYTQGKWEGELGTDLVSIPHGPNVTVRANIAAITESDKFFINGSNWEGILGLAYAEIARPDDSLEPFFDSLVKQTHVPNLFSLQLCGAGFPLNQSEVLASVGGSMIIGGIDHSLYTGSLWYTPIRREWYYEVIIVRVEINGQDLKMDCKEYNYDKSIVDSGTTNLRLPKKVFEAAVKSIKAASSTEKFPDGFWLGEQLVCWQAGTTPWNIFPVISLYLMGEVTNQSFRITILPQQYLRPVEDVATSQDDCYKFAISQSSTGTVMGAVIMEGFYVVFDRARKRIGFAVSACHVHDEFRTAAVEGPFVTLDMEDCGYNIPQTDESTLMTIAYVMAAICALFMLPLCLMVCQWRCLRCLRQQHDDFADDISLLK
Test: β-Secretase (BACE-1) inhibition assay
Type: biochemical
Conditions: stated in text; read-out: BACE-1 IC50
Structures can show the parent of a compound that is named as a salt.
Field: pIC50. Provide a value for each of the molecules that follow.
One number for each entry, as −log10 of the molar value.

CC1=C[C@H]2Cc3nc4cc(Cl)ccc4c(NCCCCCCCCCNC(=O)c4cc(O)c5c(c4)C(=O)c4cccc(O)c4C5=O)c3[C@@H](C1)C2 [(+)-(Ib)•HCl]: 7.10

Now consider a different molecule.
Entry CC1=C[C@@H]2Cc3nc4cc(Cl)ccc4c(NCCCCCCCCCNC(=O)c4cc(O)c5c(c4)C(=O)c4cccc(O)c4C5=O)c3[C@H](C1)C2 [(−)-(Ib)•HCl] : reported pIC50 = ? 7.10
